- System: Escherichia coli TOP10
- Assay notes: shrunken log2 fold change of peptide-encoding DNA abundance (4.5 h post-induction vs induction); higher = less antimicrobial activity (less host growth inhibition)
- Experimental setup: time post-induction: 4.5 h; library: site-saturation at positions 5, 18, 19, 20
Metric name: shrunken log2 fold change

// known answers, use as guide
Task: Field request: shrunken log2 fold change | item: RRIRNRPPRLPRPRPRPVGHPRP
Output: -0.128

Task: Field request: shrunken log2 fold change | item: RRIRNRPPRLPRPRPRPTNNPRP
Output: -0.545

Task: Field request: shrunken log2 fold change | item: RRIRWRPPRLPRPRPRPKRVPRP
Output: 0.383

***
Task: Field request: shrunken log2 fold change | item: RRIRPRPPRLPRPRPRPYACPRP
Output: -0.921

Task: Field request: shrunken log2 fold change | item: RRIRIRPPRLPRPRPRPWVRPRP
Output: 0.0146

Task: Field request: shrunken log2 fold change | item: RRIRFRPPRLPRPRPRPQCMPRP
Output: 0.000372

Task: Field request: shrunken log2 fold change | item: RRIRWRPPRLPRPRPRPKVYPRP
Output: -0.0533

Task: Field request: shrunken log2 fold change | item: RRIRKRPPRLPRPRPRPDFNPRP
Output: 0.0068

Task: Field request: shrunken log2 fold change | item: RRIRRRPPRLPRPRPRPKYSPRP
Output: -0.124

Task: Field request: shrunken log2 fold change | item: RRIRARPPRLPRPRPRPCMVPRP
Output: -0.0554

Task: Field request: shrunken log2 fold change | item: RRIRERPPRLPRPRPRPWFTPRP
Output: -0.187

Task: Field request: shrunken log2 fold change | item: RRIRGRPPRLPRPRPRPFMMPRP
Output: -0.467

###

- System: Escherichia coli TOP10;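 note: peptides expressed intracellularly from a pBAD plasmid library in pooled LB shake-flask culture, induced with 0.3% L-arabinose, DNA abundance read by NGS, three biological replicates, DESeq2 with apeglm shrinkage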
- Assay notes: shrunken log2 fold change of peptide-encoding DNA abundance (4.5 h post-induction vs induction); higher = less antimicrobial activity (less host growth inhibition)
- Experimental setup: time post-induction: 4.5 h; library: site-saturation at positions 5, 18, 19, 20
Record Criterion met whenever shrunken log2 fold change is at -0.1 or higher; record Criterion not met when lower.

Consider the following illustrative entries.
Task: Does the reported shrunken log2 fold change for RRIRSRPPRLPRPRPRPEWYPRP fall at or above the -0.1 mark?
Output: Criterion met

Task: Does the reported shrunken log2 fold change for RRIRVRPPRLPRPRPRPTHGPRP fall at or above the -0.1 mark?
Output: Criterion not met

Task: Does the reported shrunken log2 fold change for RRIRARPPRLPRPRPRPTDGPRP fall at or above the -0.1 mark?
Output: Criterion met

Task: Does the reported shrunken log2 fold change for RRIRSRPPRLPRPRPRPTNRPRP fall at or above the -0.1 mark?
Output: Criterion not met

Task: Does the reported shrunken log2 fold change for RRIRARPPRLPRPRPRPCTWPRP fall at or above the -0.1 mark?
Output: Criterion met

Task: Does the reported shrunken log2 fold change for RRIRCRPPRLPRPRPRPRMNPRP fall at or above the -0.1 mark?
Output: Criterion met

Task: Does the reported shrunken log2 fold change for RRIRGRPPRLPRPRPRPPKMPRP fall at or above the -0.1 mark?
Output: Criterion met

***
Task: Does the reported shrunken log2 fold change for RRIRFRPPRLPRPRPRPLQQPRP fall at or above the -0.1 mark?
Output: Criterion met
